Data origin: ChEMBL document CHEMBL1961873

Tested on: Tyrosine-protein kinase ABL1 (Homo sapiens), P00519 [M351T]
EXPERIMENTAL CONTEXT: at 1 µM
Exercise: for every item that follows, state its recorded inhibition.

Ask: Could you share which inhibition value was measured for `COC(=O)Nc1nc2ccc(S(=O)(=O)c3ccc(NC(=O)Nc4cc(C(F)(F)F)ccc4F)cc3)cc2[nH]1` ?
Reply: 3.17%

Ask: Could you share which inhibition value was measured for `CCn1c(-c2nonc2N)nc2cnc(Oc3cccc(NC(=O)c4ccc(N(C)C)cc4)c3)cc21` ?
Reply: 4.81%

Ask: Could you share which inhibition value was measured for `COc1ccc(-c2nn3ncccc3c2-c2ccnc(Nc3ccc4c(c3)OCCO4)n2)cc1` ?
Reply: 63.3%

Ask: Could you share which inhibition value was measured for `COc1ccc(CNC(=O)c2ccc(-c3cc(-c4nnc(C)o4)ccc3C)cc2)cc1` ?
Reply: 5.1%

Ask: Could you share which inhibition value was measured for `CNC(=O)c1cccc(C#Cc2cncnc2Nc2ccc(OCc3cccc(F)c3)c(Cl)c2)c1` ?
Reply: 2.15%

Ask: Could you share which inhibition value was measured for `Nc1nc(-c2ccc(F)cc2)c(-c2ccc3ncccc3n2)s1` ?
Reply: 20.2%

Ask: Could you share which inhibition value was measured for `CCOc1ccc2c(-c3ccnc(Nc4cccc(C(F)(F)F)c4)n3)cnn2n1` ?
Reply: 1.69%

Ask: Could you share which inhibition value was measured for `Cc1ccc2c(-c3ccnc(Nc4ccccc4)n3)c(-c3ccc(F)cc3)nn2n1` ?
Reply: 56.4%

Ask: Could you share which inhibition value was measured for `CNC(=O)c1cc(-c2ccc(F)cc2)cc(-c2ccc(S(=O)(=O)N3CCCC3)cc2)c1N` ?
Reply: 0.79%

Ask: Could you share which inhibition value was measured for `CCn1c(-c2nonc2N)nc2ccccc21` ?
Reply: -3.04%

Ask: Could you share which inhibition value was measured for `CS(=O)(=O)CCNCc1coc(-c2ccc3ncnc(Nc4ccc(OCc5ccccc5)cc4)c3c2)c1` ?
Reply: 1.86%

Ask: Could you share which inhibition value was measured for `COC(=O)Nc1nc2ccc(Oc3ccc(NC(=O)Nc4cccc(Cl)c4)cc3)cc2[nH]1` ?
Reply: 56.3%

Ask: Could you share which inhibition value was measured for `COc1ccc(-c2cc3c(N)ncnc3o2)cc1` ?
Reply: 11.2%

Ask: Could you share which inhibition value was measured for `Fc1ccc(-c2cc(-c3c[nH]nc3-c3ccccn3)ccn2)cc1` ?
Reply: 28.3%

Ask: Could you share which inhibition value was measured for `COC(=O)c1sc(-n2cnc3cc(OC)c(OC)cc32)cc1OCc1ccccc1C(F)(F)F` ?
Reply: 16.2%

Ask: Could you share which inhibition value was measured for `NS(=O)(=O)c1ccc(Nc2ncc(-c3ccccc3)o2)cc1` ?
Reply: 40.1%

Ask: Could you share which inhibition value was measured for `COc1ccc2c(-c3ccnc(Nc4cccc(OC(F)(F)F)c4)n3)cnn2n1` ?
Reply: 11.9%

Ask: Could you share which inhibition value was measured for `CCN1CCC(CC(=O)Nc2n[nH]c3nnc(-c4cccc(F)c4F)cc23)CC1` ?
Reply: 3.11%

Ask: Could you share which inhibition value was measured for `O=S(=O)(CCNCc1ccc(-c2ccc3ncnc(Nc4ccc(OCc5cccc(F)c5)c(Cl)c4)c3c2)o1)c1ccccc1` ?
Reply: 2.88%

----------
TARGET ENTITY: Ribosomal protein S6 kinase alpha-6 (Homo sapiens);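 note: reported value is the mean inhibition of RSK4, from the GSK PKIS kinase inhibitor screen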
EXPERIMENTAL CONTEXT: at 0.1 µM
REPORTED METRIC: inhibition (%)
Report the figure in % without appending any unit label.

Ask: Could you share which inhibition value was measured for `COc1cc(N2CCN(C(C)C)CC2)ccc1Nc1nc(Nc2ccc(F)cc2C(N)=O)c2cc[nH]c2n1` ?
Reply: 14.5

Ask: Could you share which inhibition value was measured for `c1cc(-c2cnn3nc(N4CCOCC4)ccc23)nc(NC2CC2)n1` ?
Reply: 0.29

Ask: Could you share which inhibition value was measured for `CCn1c(-c2nonc2N)nc2c(C#CC(C)(C)O)ncc(OC3CCNCC3)c21` ?
Reply: 1.98

Ask: Could you share which inhibition value was measured for `c1ccc(-c2nc3n(c2-c2ccc4c(c2)OCO4)CCC3)nc1` ?
Reply: 1.28

Ask: Could you share which inhibition value was measured for `Nc1nc(-c2cccc(Cl)c2)c(-c2ccc3ncccc3n2)s1` ?
Reply: 1.97

Ask: Could you share which inhibition value was measured for `Fc1ccc(-c2nn3ccccc3c2-c2ccncc2)cc1` ?
Reply: 1.1

Ask: Could you share which inhibition value was measured for `Cc1cccc2c1NC(=O)/C2=N\Nc1ccc(S(N)(=O)=O)cc1` ?
Reply: 1.43

Ask: Could you share which inhibition value was measured for `COc1cccc(-c2c[nH]c3c(N/N=C/c4ccncc4)ncnc23)c1` ?
Reply: 1.63

Ask: Could you share which inhibition value was measured for `CCOc1ccc2c(-c3ccnc(Nc4cccc(C(F)(F)F)c4)n3)cnn2n1` ?
Reply: -0.47

Ask: Could you share which inhibition value was measured for `Fc1ccc(-c2cc(-c3c[nH]nc3-c3ccccn3)ccn2)cc1` ?
Reply: -0.68

Ask: Could you share which inhibition value was measured for `COc1cc(/C=N/Nc2ncnc3[nH]ncc23)ccc1O` ?
Reply: 2.97

Ask: Could you share which inhibition value was measured for `Clc1ccc(-c2nn3ncccc3c2-c2ccnc(Nc3ccccc3)n2)cc1` ?
Reply: 0.64

Ask: Could you share which inhibition value was measured for CC1=C(C(=O)Nc2cc(Cl)c3[nH]ncc3c2)C(c2ccc(C(F)(F)F)cc2)CC(=O)N1 (stereo unspecified) ?
Reply: 7.7

Ask: Could you share which inhibition value was measured for `NS(=O)(=O)c1ccc(N/N=C2\C(=O)Nc3ccc4ncccc4c32)cc1` ?
Reply: 13

Ask: Could you share which inhibition value was measured for `[O-][S+]1CCN(Cc2ccc(-c3ccc4ncnc(Nc5ccc(OCc6cccc(F)c6)c(Cl)c5)c4c3)o2)CC1` ?
Reply: 1.65

Ask: Could you share which inhibition value was measured for `CCCN1CCC(c2ccc(Nc3nc(Nc4cc(F)ccc4C(N)=O)c4cc[nH]c4n3)c(OC)c2)CC1` ?
Reply: 23.4

Ask: Could you share which inhibition value was measured for `c1ccc(COc2ccc(Nc3ncnc4ccc(-c5ccco5)cc34)cc2)cc1` ?
Reply: 0.12

Ask: Could you share which inhibition value was measured for `COC(=O)c1sc(-n2cnc3cc(OC)c(OC)cc32)cc1OCc1ccccc1C(F)(F)F` ?
Reply: 1.2

Ask: Could you share which inhibition value was measured for `CC(=O)NCc1cccc(C#Cc2cncnc2Nc2ccc(OCc3cccc(F)c3)c(Cl)c2)c1` ?
Reply: 0.19

Ask: Could you share which inhibition value was measured for `Cc1ccc(O)cc1Nc1ccnc2cc(-c3ccccn3)ccc12` ?
Reply: 0.21

Ask: Could you share which inhibition value was measured for `COc1cc(Nc2nccc(Nc3ccc4c(C)n[nH]c4c3)n2)cc(OC)c1OC` ?
Reply: 1.26
